Reference source: ChEMBL document CHEMBL1123103

Test system: Semliki Forest virus
Experiment: Antiviral activity against Forest virus (SFV)
Format: functional
Note to self: ED50 under 100 mg/kg means condition met, ties and anything higher get condition not met.

# Smiles text, Class name
records = [
    ("Nc1nc(O)c(I)c(-c2ccc(Cl)c(Cl)c2)n1", "condition not met"),
    ("Nc1nc(O)c(I)c(-c2c(F)cccc2F)n1", "condition not met"),
    ("Nc1nc(O)c(Br)c(-c2cc(Cl)cc(Cl)c2)n1", "condition not met"),
    ("Nc1nc(O)c(Cl)c(-c2ccccc2F)n1", "condition not met"),
    ("Nc1nc(O)c(Cl)c(-c2ccccc2Cl)n1", "condition not met"),
    ("Nc1nc(O)c(I)c(-c2cccnc2)n1", "condition not met"),
    ("Nc1nc(O)c(Cl)c(-c2cccc(F)c2F)n1", "condition met"),
    ("Nc1nc(O)c(I)c(-c2ccc(C(=O)O)cc2)n1", "condition not met"),
    ("Nc1nc(O)c(I)c(-c2cc(Cl)cc(Cl)c2)n1", "condition not met"),
    ("Nc1nc(O)c(Br)c(-c2ccco2)n1", "condition not met"),
    ("COc1cc(OC)cc(-c2nc(N)nc(O)c2Br)c1", "condition met"),
    ("Nc1nc(O)c(I)c(-c2cccc(Cl)c2)n1", "condition met"),
    ("Nc1nc(O)c(Cl)c(-c2ccc(Cl)c(Cl)c2)n1", "condition not met"),
    ("Nc1nc(O)c(I)c(-c2cccc(F)c2F)n1", "condition not met"),
    ("Nc1nc(O)c(I)c(-c2cccc(C(F)(F)F)c2)n1", "condition not met"),
    ("Cc1ccc(-c2nc(N)nc(O)c2I)cc1", "condition not met"),
    ("Nc1nc(O)c(I)c(-c2ccoc2)n1", "condition not met"),
    ("Nc1nc(O)c(I)c(-c2cccc(Br)c2)n1", "condition met"),
    ("Nc1nc(O)c(I)c(-c2ccc(OCc3ccccc3)cc2)n1", "condition not met"),
    ("COc1cc(OC)cc(-c2nc(N)nc(O)c2Cl)c1", "condition met"),
    ("Nc1nc(O)c(Br)c(-c2cccc(F)c2F)n1", "condition not met"),
    ("Nc1nc(O)c(Br)c(-c2cccc(Br)c2)n1", "condition not met"),
    ("Nc1nc(O)c(Cl)c(-c2cccc(F)c2)n1", "condition met"),
    ("COc1cccc(-c2nc(N)nc(O)c2Br)c1", "condition met"),
    ("Nc1nc(O)c(Br)c(-c2ccc3ccccc3c2)n1", "condition not met"),
    ("Nc1nc(O)c(Br)c(-c2cccc3ccccc23)n1", "condition met"),
]

----------
System: Semliki Forest virus
Assay: Effective dose administered perorally againist Forest virus infected mice
Assay type: functional
Conditions: po

# Smiles text, System, ED50
data = [
    ("Nc1nc(O)c(I)c(-c2ccccc2)n1", "Semliki Forest virus", "> 400 mg/kg"),
    ("Nc1nc(O)c(I)c(-c2cccc(C(F)(F)F)c2)n1", "Semliki Forest virus", "> 400 mg/kg"),
    ("Nc1nc(O)c(Cl)c(-c2ccccc2)n1", "Semliki Forest virus", "90 mg/kg"),
    ("Nc1nc(O)c(I)c(-c2cccc(Cl)c2)n1", "Semliki Forest virus", "> 400 mg/kg"),
    ("Nc1nc(O)c(Br)c(-c2ccccc2F)n1", "Semliki Forest virus", "> 400 mg/kg"),
    ("Nc1nc(O)c(I)c(-c2ccccn2)n1", "Semliki Forest virus", "235 mg/kg"),
    ("Nc1nc(O)c(I)c(-c2cc(Cl)ccc2Cl)n1", "Semliki Forest virus", "75 mg/kg"),
    ("Nc1nc(O)c(Cl)c(-c2cnccn2)n1", "Semliki Forest virus", "395 mg/kg"),
    ("Nc1nc(O)c(Cl)c(-c2cc(F)cc(F)c2)n1", "Semliki Forest virus", "> 400 mg/kg"),
    ("Nc1nc(O)c(I)c(-c2cccc(Br)c2)n1", "Semliki Forest virus", "> 400 mg/kg"),
    ("Nc1nc(O)c(Cl)c(-c2cccc(F)c2)n1", "Semliki Forest virus", "> 400 mg/kg"),
]
